test: PK study in non-human primates, single sc dose 5 nmol/kg, plasma ELISA; settings: monkey, single sc dose 5 nmol/kg
Consider the following molecules; for each one, report its Terminal t1/2.
Numbers only, in h.

Look over these answered cases.
MLC090: fusion polypeptide SEQ ID NO: 379 conjugated with Moiety C at 39C of Linker (conjugate, Moiety C conjugated at linker Cys39) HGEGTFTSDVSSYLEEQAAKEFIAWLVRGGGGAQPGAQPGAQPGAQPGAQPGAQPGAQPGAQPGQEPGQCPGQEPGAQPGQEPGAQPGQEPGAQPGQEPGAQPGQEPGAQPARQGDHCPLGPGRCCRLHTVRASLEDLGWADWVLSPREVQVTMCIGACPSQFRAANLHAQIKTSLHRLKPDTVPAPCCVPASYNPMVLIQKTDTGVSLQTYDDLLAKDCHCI ... 40
MLC013: fusion polypeptide SEQ ID NO: 260 conjugated with Moiety A at 1K of Linker (conjugate, Moiety A conjugated at linker K1) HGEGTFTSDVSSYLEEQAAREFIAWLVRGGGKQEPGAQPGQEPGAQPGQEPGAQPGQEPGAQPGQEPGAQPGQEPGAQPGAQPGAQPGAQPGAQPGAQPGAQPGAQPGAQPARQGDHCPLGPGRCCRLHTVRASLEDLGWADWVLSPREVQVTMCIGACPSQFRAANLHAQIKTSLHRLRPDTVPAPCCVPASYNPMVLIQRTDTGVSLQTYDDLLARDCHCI ... 26

Consider now this further molecule.
Q: Query: Terminal t1/2; subject: MLC004: fusion polypeptide SEQ ID NO: 251 conjugated with Moiety A at 26K of GLP-1 (conjugate, Moiety A conjugated at K26) HGEGTFTSDVSSYLEEQAAKEFIAWLVRGGGGQEPGAQPGQEPGAQPGQEPGAQPGQEPGAQPGQEPGAQPGQEPGAQPGAQPGAQPGAQPGAQPGAQPGAQPGAQPGAQPARQGDHCPLGPGRCCRLHTVRASLEDLGWADWVLSPREVQVTMCIGACPSQFRAANLHAQIKTSLHRLRPDTVPAPCCVPASYNPMVLIQRTDTGVSLQTYDDLLARDCHCI
Result: 13
